Tested on: mouse eczema model
Test: Mouse eczema model: ear thickness
Assay type: in vivo, C57BL/6 mice
Settings: after modeling, 14th day; 0.1% cream for external use twice a day, 10 days (positive: aloxone)
Reported property: Ear thickness (mm)
Dear colleague, please return just the value in mm, with no unit written.

Here are 2 compounds together with their reported answers.
[
  {
    "Compound": "O=C(c1ccc(-c2ccccc2-c2nnn[nH]2)cc1)N(c1ncccc1Cl)[C@@H]1CCCNC1",
    "Reported property": "Ear thickness",
    "Reported measurement": 0.253
  },
  {
    "Compound": "Nc1ccccc1-c1ccc(C(=O)N(c2ncccc2Cl)[C@@H]2CCCNC2)cc1",
    "Reported property": "Ear thickness",
    "Reported measurement": 0.246
  }
]

Here is another compound to look at.
[Q] Note down Ear thickness recorded for CN1CCC[C@@H](N(C(=O)c2ccc(-n3nnc4cccnc43)cc2)c2ncccc2Cl)C1
[A] 0.251

====

Catalogue of sebaceous gland diameter values
Tested on: rabbit ear acne model
Test: Rabbit ear acne model: epidermal thickness, hair follicle area, sebaceous gland diameter
Type: in vivo, New Zealand rabbits
Settings: rabbit right ear; external use (0.25% CLY cream; positive: Differin)
Dear colleague, please return just the value in mm, with no unit written.

[
  {
    "Compound": "NC1CCCC(N(C(=O)c2ccc(-n3nnc4cccnc43)cc2)c2ncccc2Cl)C1 (stereo not drawn)",
    "sebaceous gland diameter (mm)": 0.0786
  }
]

[Q] # lookup: rabbit ear acne model sebaceous gland diameter, key = O=C(c1ccc(-c2ccccc2-c2nnn[nH]2)cc1)N(c1ncccc1Cl)[C@@H]1CCCNC1
[A] 0.0795

[Q] # lookup: rabbit ear acne model sebaceous gland diameter, key = O=C(c1ccc(-c2ccccc2Cl)cc1)N(c1ncccc1Cl)[C@@H]1CCCNC1
[A] 0.0805

====

System: mouse eczema model
Assay: Mouse eczema model: ear thickness
Type: in vivo, C57BL/6 mice
Settings: after modeling, 14th day; 0.1% cream for external use twice a day, 10 days (positive: aloxone)
Catalogue of Ear thickness values
Report field: quantity (unit follows the number).

Here are 3 compounds together with their reported answers.
[
  {
    "Compound": "CCN1CCC[C@@H](N(C(=O)c2ccc(-n3nnc4cccnc43)cc2)c2ncccc2Cl)C1",
    "Target or test system": "mouse eczema model",
    "Reported measurement": "0.246 mm"
  },
  {
    "Compound": "O=C(c1ccc(-c2ccccc2Cl)cc1)N(c1ncccc1Cl)[C@@H]1CCCNC1",
    "Target or test system": "mouse eczema model",
    "Reported measurement": "0.248 mm"
  },
  {
    "Compound": "CNC1CCCC(N(C(=O)c2ccc(-n3nnc4cccnc43)cc2)c2ncccc2Cl)C1 (stereo not shown)",
    "Target or test system": "mouse eczema model",
    "Reported measurement": "0.297 mm"
  }
]

Here is another compound to look at.
[Q] # lookup: mouse eczema model Ear thickness, key = NC1CCCC(N(C(=O)c2ccc(-n3nnc4cccnc43)cc2)c2ncccc2Cl)C1 (stereo not shown)
[A] 0.278 mm
